- System: HMEC-1 human microvascular endothelial cells
- Format: cell-based
- condition info: 24 h
Ends that are not written are not given here.

{"substance": "GLLSVLGSLKLIVPHVVPLIAEKL-NH2 [Caerin 1.1-LC]", "IC50, µM": 79.3}

---

Reported MBC, K. pneumoniae (ATCC 43816) values for a set of substances
- Tested on: Klebsiella pneumoniae ATCC 43816
- Type: cell-based
- condition info: ATCC 43816
Ends that are not written are not given here.

{"substance": "GLLSVLGSLKLIVPRVVPLIAEKL-NH2 [Caerin 1.1-LC PRVVP]", "lt gt eq": "=", "MBC, K. pneumoniae (ATCC 43816), µM": 16}
{"substance": "GLLSVLGSLKLIVPGGGPLIAEKL-NH2 [Caerin 1.1-LC PGGGP]", "lt gt eq": ">", "MBC, K. pneumoniae (ATCC 43816), µM": 128}
{"substance": "GLLSVLGSLKKIVPHVVPLIAKKL-NH2 [Caerin 1.1-LC 11K.22K]", "lt gt eq": "=", "MBC, K. pneumoniae (ATCC 43816), µM": 16}
{"substance": "GLLSVLGSLKKIVPKAVPKIAEKL-NH2 [Caerin 1.1-LC 11K.19K.PKAVP]", "lt gt eq": "=", "MBC, K. pneumoniae (ATCC 43816), µM": 64}
{"substance": "GLLSVLGSLKKIVPHVVPLIAEKL-NH2 [Caerin 1.1-LC 11K]", "lt gt eq": "=", "MBC, K. pneumoniae (ATCC 43816), µM": 32}
{"substance": "GLLSVLGSLKLIVPHWWPLIAEKL-NH2 [Caerin 1.1-LC PHWWP]", "lt gt eq": ">", "MBC, K. pneumoniae (ATCC 43816), µM": 128}
{"substance": "GLLSVLGSLKKIVPHVVPWIAKKL-NH2 [Caerin 1.1-LC 11K.12K.19W]", "lt gt eq": "=", "MBC, K. pneumoniae (ATCC 43816), µM": 4}
{"substance": "GLLSVLGSLKLIVPHLLPLIAEKL-NH2 [Caerin 1.1-LC PHLLP]", "lt gt eq": "=", "MBC, K. pneumoniae (ATCC 43816), µM": 8}
{"substance": "GLLSVLKSLKKIVPHVVPKIAEKL-NH2 [Caerin 1.1-LC 7.11.19K]", "lt gt eq": "=", "MBC, K. pneumoniae (ATCC 43816), µM": 4}
{"substance": "GLLSVLGSLKKWVPHVVPLIAKKL-NH2 [Caerin 1.1-LC 11K.12K.12W]", "lt gt eq": "=", "MBC, K. pneumoniae (ATCC 43816), µM": 4}
{"substance": "GLLSVLGSLKLIVPHIIPLIAEKL-NH2 [Caerin 1.1-LC PHIIP]", "lt gt eq": "=", "MBC, K. pneumoniae (ATCC 43816), µM": 16}
{"substance": "GLLSVLGSLKLIVAHVVALIAEKL-NH2 [Caerin 1.1-LC 2P-2A]", "lt gt eq": ">", "MBC, K. pneumoniae (ATCC 43816), µM": 128}
{"substance": "GLLSVLGSLKLIVPHVVPLIAEKL-NH2 [Caerin 1.1-LC]", "lt gt eq": "=", "MBC, K. pneumoniae (ATCC 43816), µM": 64}
{"substance": "GLLSVLGSLKLIVPKVVPLIAEKL-NH2 [Caerin 1.1-LC PKVVP]", "lt gt eq": "=", "MBC, K. pneumoniae (ATCC 43816), µM": 32}

---

- System: E. coli (ATCC-BAA 2340)
- Format: cell-based, Escherichia coli
- condition info: ATCC-BAA 2340
Ends that are not written are not given here.
Reported MIC, Mg^2+ values for a set of substances
endpoint: MIC, Mg^2+ (µM)

{"substance": "GLLSVLGSLKKIVPHVVPWIAKKL-NH2 [Caerin 1.1-LC 11K.12K.19W]", "endpoint": "MIC, Mg^2+", "units label": "µM", "value": 4}
{"substance": "GLLSVLGSLKKWVPHVVPLIAKKL-NH2 [Caerin 1.1-LC 11K.12K.12W]", "endpoint": "MIC, Mg^2+", "units label": "µM", "value": 8}
{"substance": "GLLSVLKSLKKIVPHVVPKIAEKL-NH2 [Caerin 1.1-LC 7.11.19K]", "endpoint": "MIC, Mg^2+", "units label": "µM", "value": 4}
{"substance": "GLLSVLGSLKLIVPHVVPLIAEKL-NH2 [Caerin 1.1-LC]", "endpoint": "MIC, Mg^2+", "units label": "µM", "value": 32}
{"substance": "GLLSVLGSLKKIVPHVVPLIAKKL-NH2 [Caerin 1.1-LC 11K.22K]", "endpoint": "MIC, Mg^2+", "units label": "µM", "value": 16}

---

- System: Enterococcus faecalis NCTC 12697
- Format: cell-based
- condition info: NCTC 12697
Ends that are not written are not given here.
Reported MIC, E. faecalis (NCTC 12697) values for a set of substances
endpoint: MIC, E. faecalis (NCTC 12697) (µM)

{"substance": "GLLSVLGSLKKWVPHVVPLIAKKL-NH2 [Caerin 1.1-LC 11K.12K.12W]", "endpoint": "MIC, E. faecalis (NCTC 12697)", "units label": "µM", "lt gt eq": "=", "value": 32}
{"substance": "GLLSVLGSLKLIVPHWWPLIAEKL-NH2 [Caerin 1.1-LC PHWWP]", "endpoint": "MIC, E. faecalis (NCTC 12697)", "units label": "µM", "lt gt eq": ">", "value": 128}
{"substance": "GLLSVLGSLKLIVPHLLPLIAEKL-NH2 [Caerin 1.1-LC PHLLP]", "endpoint": "MIC, E. faecalis (NCTC 12697)", "units label": "µM", "lt gt eq": "=", "value": 32}
{"substance": "GLLSVLGSLKLIVPGGGPLIAEKL-NH2 [Caerin 1.1-LC PGGGP]", "endpoint": "MIC, E. faecalis (NCTC 12697)", "units label": "µM", "lt gt eq": ">", "value": 128}

---

Reported MIC, K. pneumoniae (ATCC BAA-2342) values for a set of substances
- System: K. pneumoniae ATCC BAA-2342
- Type: cell-based, Klebsiella pneumoniae
Ends that are not written are not given here.

{"substance": "GLLSVLGSLKLIVAHVVALIAEKL-NH2 [Caerin 1.1-LC 2P-2A]", "system tested": "K. pneumoniae ATCC BAA-2342", "lt gt eq": ">", "MIC, K. pneumoniae (ATCC BAA-2342), µM": 128}
{"substance": "GLLSVLGSLKLIVPHLLPLIAEKL-NH2 [Caerin 1.1-LC PHLLP]", "system tested": "K. pneumoniae ATCC BAA-2342", "lt gt eq": "=", "MIC, K. pneumoniae (ATCC BAA-2342), µM": 8}
{"substance": "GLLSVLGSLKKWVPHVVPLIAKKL-NH2 [Caerin 1.1-LC 11K.12K.12W]", "system tested": "K. pneumoniae ATCC BAA-2342", "lt gt eq": "=", "MIC, K. pneumoniae (ATCC BAA-2342), µM": 8}
{"substance": "GLLSVLGSLKKIVPHVVPWIAKKL-NH2 [Caerin 1.1-LC 11K.12K.19W]", "system tested": "K. pneumoniae ATCC BAA-2342", "lt gt eq": "=", "MIC, K. pneumoniae (ATCC BAA-2342), µM": 4}
{"substance": "GLLSVLGSLKKIVPKAVPKIAEKL-NH2 [Caerin 1.1-LC 11K.19K.PKAVP]", "system tested": "K. pneumoniae ATCC BAA-2342", "lt gt eq": ">", "MIC, K. pneumoniae (ATCC BAA-2342), µM": 128}
{"substance": "GLLSVLGSLKLIVPGGGPLIAEKL-NH2 [Caerin 1.1-LC PGGGP]", "system tested": "K. pneumoniae ATCC BAA-2342", "lt gt eq": ">", "MIC, K. pneumoniae (ATCC BAA-2342), µM": 128}
{"substance": "GLLSVLGSLKLIVPRVVPLIAEKL-NH2 [Caerin 1.1-LC PRVVP]", "system tested": "K. pneumoniae ATCC BAA-2342", "lt gt eq": "=", "MIC, K. pneumoniae (ATCC BAA-2342), µM": 8}
{"substance": "GLLSVLGSLKLIVPHWWPLIAEKL-NH2 [Caerin 1.1-LC PHWWP]", "system tested": "K. pneumoniae ATCC BAA-2342", "lt gt eq": ">", "MIC, K. pneumoniae (ATCC BAA-2342), µM": 128}
{"substance": "GLLSVLGSLKKIVPHVVPLIAKKL-NH2 [Caerin 1.1-LC 11K.22K]", "system tested": "K. pneumoniae ATCC BAA-2342", "lt gt eq": "=", "MIC, K. pneumoniae (ATCC BAA-2342), µM": 4}
